Entry source: patent US20210094899A1

Test: Pharmacokinetic determination in rats
Type: in vivo, female SD rats
Conditions: female, SD, plasma; rat, PO, 10.0 mg/kg
Readout name: AUC(0-inf) (µM·h)
I only need the number, in µM·h, no unit after it.

*Q* # get_value(readout='AUC(0-inf)', item= "CC/C(=C(\c1ccc(O)cc1)c1ccc(/C=C/C(=O)O)cc1)c1ccc(F)cc1Cl" )
*A* 11.1

###

Assay: Pharmacokinetic determination in mice
Assay type: in vivo, female CD mice
Details: female, CD, plasma; mouse, PO, 10.0 mg/kg
Readout name: AUC(0-inf) (µM·h)
I only need the number, in µM·h, no unit after it.

*Q* # get_value(readout='AUC(0-inf)', item= CC/C(=C(\c1ccc(O)cc1)c1ccc(/C=C/C(=O)O)cc1)c1ccc(F)cc1Cl [Example 1] )
*A* 7

###

Test: Pharmacokinetic determination in mice
Assay type: in vivo, female CD mice
Conditions: female, CD, plasma; mouse, PO, 10.0 mg/kg
Readout name: Cmax (µM)
I only need the number, in µM, no unit after it.

*Q* # get_value(readout='Cmax', item= "CC/C(=C(\c1ccc(O)cc1)c1ccc(/C=C/C(=O)O)cc1)c1ccc(F)cc1Cl" )
*A* 2.5

###

Test: Pharmacokinetic determination in mice
Type: in vivo, female CD mice
Settings: female, CD, plasma; mouse, PO, 10.0 mg/kg
Readout name: Tmax (min)
I only need the number, in min, no unit after it.

*Q* # get_value(readout='Tmax', item= "CC/C(=C(\c1ccc(O)cc1)c1ccc(/C=C/C(=O)O)cc1)c1ccc(F)cc1Cl" )
*A* 15

###

Assay: Pharmacokinetic determination in mice
Format: in vivo, female CD mice
Conditions: female, CD, plasma; mouse, IV, 3.0 mg/kg
Readout name: clearance (mL/min/kg)
I only need the number, in mL/min/kg, no unit after it.

*Q* # get_value(readout='clearance', item= "CC/C(=C(\c1ccc(O)cc1)c1ccc(/C=C/C(=O)O)cc1)c1ccc(F)cc1Cl" )
*A* 49.6

###

Assay: Pharmacokinetic determination in mice
Type: in vivo, female CD mice
Conditions: female, CD, plasma; mouse, IV, 3.0 mg/kg; read-out: Vdss
Readout name: Vd (L/kg)
I only need the number, in L/kg, no unit after it.

*Q* # get_value(readout='Vd', item= CC/C(=C(\c1ccc(O)cc1)c1ccc(/C=C/C(=O)O)cc1)c1ccc(F)cc1Cl [Example 1] )
*A* 6

###

Assay: Pharmacokinetic determination in mice
Assay type: in vivo, female CD mice
Details: female, CD, plasma; mouse, IV, 3.0 mg/kg
Readout name: half-life (h)
I only need the number, in h, no unit after it.

*Q* # get_value(readout='half-life', item= "CC/C(=C(\c1ccc(O)cc1)c1ccc(/C=C/C(=O)O)cc1)c1ccc(F)cc1Cl" )
*A* 3.9

###

Test: Pharmacokinetic determination in rats
Format: in vivo, female SD rats
Settings: female, SD, plasma; rat, IV, 3.0 mg/kg; read-out: Vdss
Readout name: Vd (L/kg)
I only need the number, in L/kg, no unit after it.

*Q* # get_value(readout='Vd', item= "CC/C(=C(\c1ccc(O)cc1)c1ccc(/C=C/C(=O)O)cc1)c1ccc(F)cc1Cl" )
*A* 2.9

###

Test: Pharmacokinetic determination in mice
Type: in vivo, female CD mice
Settings: female, CD, plasma; mouse, IV, 3.0 mg/kg
Readout name: AUC(0-inf) (µM·h)
I only need the number, in µM·h, no unit after it.

*Q* # get_value(readout='AUC(0-inf)', item= "CC/C(=C(\c1ccc(O)cc1)c1ccc(/C=C/C(=O)O)cc1)c1ccc(F)cc1Cl" )
*A* 2.4

###

Assay: Pharmacokinetic determination in rats
Type: in vivo, female SD rats
Details: female, SD, plasma; rat, IV, 3.0 mg/kg
Readout name: AUC(0-inf) (µM·h)
I only need the number, in µM·h, no unit after it.

*Q* # get_value(readout='AUC(0-inf)', item= "CC/C(=C(\c1ccc(O)cc1)c1ccc(/C=C/C(=O)O)cc1)c1ccc(F)cc1Cl" )
*A* 6.3

###

Assay: Pharmacokinetic determination in rats
Type: in vivo, female SD rats
Conditions: female, SD, plasma; rat, PO, 10.0 mg/kg
Readout name: half-life (h)
I only need the number, in h, no unit after it.

*Q* # get_value(readout='half-life', item= "CC/C(=C(\c1ccc(O)cc1)c1ccc(/C=C/C(=O)O)cc1)c1ccc(F)cc1Cl" )
*A* 8

###

Test: Pharmacokinetic determination in rats
Assay type: in vivo, female SD rats
Conditions: female, SD, plasma; rat, PO, 10.0 mg/kg
Readout name: Cmax (µM)
I only need the number, in µM, no unit after it.

*Q* # get_value(readout='Cmax', item= "CC/C(=C(\c1ccc(O)cc1)c1ccc(/C=C/C(=O)O)cc1)c1ccc(F)cc1Cl" )
*A* 5.7

###

Assay: Pharmacokinetic determination in rats
Format: in vivo, female SD rats
Settings: female, SD, plasma; rat, IV, 3.0 mg/kg
Readout name: clearance (mL/min/kg)
I only need the number, in mL/min/kg, no unit after it.

*Q* # get_value(readout='clearance', item= "CC/C(=C(\c1ccc(O)cc1)c1ccc(/C=C/C(=O)O)cc1)c1ccc(F)cc1Cl" )
*A* 19

###

Assay: Pharmacokinetic determination in rats
Assay type: in vivo, female SD rats
Settings: female, SD, plasma; rat, IV, 3.0 mg/kg
Readout name: half-life (min)
I only need the number, in min, no unit after it.

*Q* # get_value(readout='half-life', item= "CC/C(=C(\c1ccc(O)cc1)c1ccc(/C=C/C(=O)O)cc1)c1ccc(F)cc1Cl" )
*A* 234
